Value source: patent US20260242458A1

The following binders are listed with their measured EC50 values.
Molecular target: T1, recombinant mouse IL-25 protein (mouse, UniProt Q8VHH8 17-169)
T1 construct: Bought (Sino Biological Inc, catalog no: 50138-M07H)
T1 sequence: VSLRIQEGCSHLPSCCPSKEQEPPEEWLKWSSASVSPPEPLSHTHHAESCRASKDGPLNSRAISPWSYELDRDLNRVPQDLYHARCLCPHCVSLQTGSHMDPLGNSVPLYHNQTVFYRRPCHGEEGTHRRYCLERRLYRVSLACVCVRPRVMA
Test: ELISA, IL-25 coated, goat anti-human IgG-HRP detection
Quantity kind: EC50 (nM)

>  <Binder>
IL25Ab1 (antibody, V domains shown) VH: QVQLKESGPGLVAPSQSLSITCTVSGFSLTDYGINWVRQPPGKGLEWLGMIWGDGVTHYNSVLKSRLSISKDNSMSQIFLKMNSLQTDDTARYYCARTLFYDGTLYYYAMDYWGQGTSVTVSS VL: QIVLTQSPATMSASPGEKVTMTCSASSSVTYMYWYQQKTGSSPRLLIYDTPNLASGVPVRFSGSGSGTSYSLTISRVEAEDAATYYCQQWSSYPHTWTFGGGTKLEIK

>  <Measured value>
0.015

$$$$
>  <Binder>
IL25Ab2 (antibody, V domains shown) VH: QVTLKESGPGILQPSQTLSLTCSFSGFSLSTSGMGVGWIRQPSGKGLEWLAHIWWDDVKQYNPALQSRLTISKDTSSSQVFLKIASVDIADIATYYCARIGPVHHGFPYWGQGALVTVSS VL: QIVLTQSPAIMSAFPGEKVTMSCSASSSVNYMYWHQQKPGSSPRLLIYDTSNLASGVPVRFSGSGSGTSYSLTISRMEAEDAATYYCQQWTSYPPMYTFGGGTKLEIK

>  <Measured value>
0.012

$$$$
>  <Binder>
IL25Ab5 (antibody, V domains shown) VH: QVQLQQWGAGLLKPSETLSLTCAVYGGSFSAYYWSWIRQSPGKGLEWIGEINHGGNTNYSPSLKSRVTISVDTSKSQFSLKLSSVTAADTAAYYCARGPGITSWAFDFWDQGTMVTVSS VL: DIQMTQSPSSLSASVGDRVTIACQASQDINNYLNWYQQKPGKAPKLLIYDASNLETGVPSRFSGNGSGTDFTFTISSLQPEDIATFYCQQYDTLPYTFGQGTKLEIR

>  <Measured value>
0.035

$$$$
>  <Binder>
IL25Ab4 (antibody, V domains shown) VH: QVTLKESGPGILQPSQTLSLTCSFSGFSLSTSGMGVSWIRQPSGKGLEWLAHIYWDDAKFYNPSLKSRVTISKDTSRNQVFLRITSVDTADIATYYCARRGYDNYGGFVDWGQGTLVTVSS VL: ENVLIQSPAIMSASLGEKVTMSCRASSSVNYMYWYQQKSDAPPKLWIYYTSNLAPGVPGRFSGSGSGNSYSLTISSMEGEDAATYYCQQFTSYPYMYTFGGGTKLEIK

>  <Measured value>
0.026

$$$$
>  <Binder>
IL25Ab3 (antibody, V domains shown, detected with anti-human IgG or anti-human kappa reagents; also called anti-IL-25Ab3; mouse origin of anti-IL-25 specific antibody) VH: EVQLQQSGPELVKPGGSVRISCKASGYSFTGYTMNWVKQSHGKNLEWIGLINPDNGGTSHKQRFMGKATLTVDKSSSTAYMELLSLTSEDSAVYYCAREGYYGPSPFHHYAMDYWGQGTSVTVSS VL: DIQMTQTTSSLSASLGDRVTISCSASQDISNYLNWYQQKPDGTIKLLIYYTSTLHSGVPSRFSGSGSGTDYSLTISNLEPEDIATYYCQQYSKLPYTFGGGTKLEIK

>  <Measured value>
0.013

$$$$
